- Measured target: T1, interleukin-6 (IL-6), recombinant (UniProt P05231 30-212)
- T1 construct: IL-6, bought recombinant protein; The simulations used human IL-6 (PDB 2IL6 with a modelled N-terminus); The bought product is probably mature human IL-6 (surmise); Amine-coupled to a CM5 chip for SPR; source: bought: GOLDBIO.COM, USA (catalog #1110-06)
- Procedure summary: SPR; Biacore T200; cytokine (about 5000 RU TNF-α, about 2000 RU IL-6) amine-coupled to a CM5 chip; peptide flowed over, single cycle kinetics, KCF18 at 2, 10, 25, 50 and 100 μM, 10 μl/min, 25 °C; steady-state binding isotherm fitted with a monovalent binding model
- Particulars: both partners purified
Measurement type: Kd (µM)
Numeric answer only, unit µM assumed.

Query :: Given the entry KCRKEMFKQKLPYSTVYF (designed 18-residue composite peptide: KCRKEM from TNFR1, FKQKLP from IL-1R, YSTVYF from the IL-6 receptor; also called designed peptide KCF18; source: synthetic peptide (GeneMark, GMbiolab Co., Ltd., Taiwan; solid phase)) [composite peptide KCF18] , report its measured Kd.
Result :: 112
